- Test system: mice
- experimental.details: Neuropharmacological Assay (SmartCube): automated behavioral signature of compound-treated mice compared with a database of reference drug classes
- Assay type: in vivo
- conditions: SmartCube class probability, 3.0 mg/kg i.p., 15 min before test, hydrochloride, 3 mg/kg
Structures can show the parent of a compound that is named as a salt.

# compound, AD
records = [
    ("NC1CCc2sccc2C1 (single isomer, unassigned) [Compound 213, hydrochloride]", "+ (≥4%)"),
    ("CNC1CCc2csc(C3CC3)c2C1 (single isomer, unassigned) [Compound 154, hydrochloride]", "ND (^ <4%)"),
    ("CNC1(C)CCc2sccc2C1 (single isomer, unassigned) [Compound 178, hydrochloride]", "+ (≥4%)"),
    ("CNC1CCc2c(C(F)(F)F)csc2C1 (single isomer, unassigned) [Compound 231, hydrochloride]", "ND (^ <4%)"),
]

----------
- Tested on: mice
- experimental.details: Neuropharmacological Assay (SmartCube): automated behavioral signature of compound-treated mice compared with a database of reference drug classes
- Format: in vivo
- conditions: probability that activity matches this class of agents, 3.0 mg/kg i.p., 15 min before test, 3 mg/kg

# compound, target.desc, AD
data = [
    ("CNC1CCc2c(C(F)(F)F)sc(C)c2C1 (single isomer, unassigned; enantiomer 2) [Compound 107]", "mice", "ND (^ <4%)"),
    ("CNC1CCc2cc(C(F)(F)F)sc2C1 (single isomer, unassigned) [Compound 38]", "mice", "ND (^ <4%)"),
]

----------
- System: mice
- experimental.details: Neuropharmacological Assay (SmartCube): automated behavioral signature of compound-treated mice compared with a database of reference drug classes
- Type: in vivo
- conditions: probability that activity matches this class of agents, 3.0 mg/kg i.p., 15 min before test, hydrochloride, 3 mg/kg
Structures can show the parent of a compound that is named as a salt.
measured.parameter: AP

// known answers, use as guide
# compound, AP
measured = [
    ("CNC1CCc2c(F)csc2C1 (single isomer, unassigned) [Compound 84, hydrochloride]", "ND (^ <4%)"),
    ("CN(C)C1CCc2ccsc2C1.Cl (single isomer, unassigned) [Compound 15]", "+ (≥4%)"),
    ("CNC1CCc2c(Cl)sc(Cl)c2C1 (single isomer, unassigned) [Compound 60, hydrochloride]", "+ (≥4%)"),
    ("CNC1CCc2sccc2C1.Cl (single isomer, unassigned) [Compound 12]", "+ (≥4%)"),
    ("CNC1CCc2scc(F)c2C1 (single isomer, unassigned) [Compound 137, hydrochloride]", "++++ (≥74%)"),
    ("Cc1csc2c1CCC(N)C2 (single isomer, unassigned) [Compound 66, hydrochloride]", "++++ (≥74%)"),
    ("CNC1CCc2cc(C)sc2C1 (single isomer, unassigned) [Compound 28, hydrochloride]", "ND (^ <4%)"),
    ("CNC1CCc2scc(C)c2C1.Cl (single isomer, unassigned) [Compound 69]", "ND (^ <4%)"),
    ("CNC1COc2cscc2C1 (single isomer, unassigned) [Compound 51, hydrochloride]", "ND (^ <4%)"),
    ("CNC1CCc2csc(C(F)(F)F)c2C1 (single isomer, unassigned) [Compound 62, hydrochloride]", "+ (≥4%)"),
]

Query CNC1CCc2cscc2C1.Cl (single isomer, unassigned) [Compound 14] yields AP of + (≥4%)

For this compound ( NC1COc2ccsc2C1 (single isomer, unassigned) [Compound 136, hydrochloride] ), measured AP is ND (^ <4%)

// AP lookup, compound = CNC1CCc2c(csc2F)C1 (single isomer, unassigned) [Compound 76, hydrochloride] , result: ++ (≥24%)

# AP (compound: CNC1CCc2csc(C#N)c2C1 (single isomer, unassigned) [Compound 134, hydrochloride] ) is ND (^ <4%)

What the record says about CNC1CCc2c(csc2Cl)C1 (single isomer, unassigned) [Compound 57, hydrochloride] : AP is ++ (≥24%)

Reported AP of CCc1scc2c1CCC(NC)C2 (single isomer, unassigned) [Compound 113, hydrochloride] : ++++ (≥74%)
